For each of the compounds below, state its inhibition.
# system: Solute carrier family 2, facilitated glucose transporter member 1 (Homo sapiens)
# assay_explanation: ST_JUDE_LEISH: Cytotoxicity at 2uM final concentration against transgenic Leishmania Mexicana promastigotes LmGLUT1 that are glucose transport deficient and complemented with the human glucose transporter GLUT1. Activity is measured by DNA content using SYBR green in vitro
# Format: functional
One number for each entry, in %.

Recorded inhibition, per entry:
                         compound_structure  value_units  observed_value
0  O=C(NC1CC1)c1cnc(N2CCN(Cc3ccc(Cl)cc3)CC2)c(Cl)c1            %            5.43
1  CN(Cc1ccc(-c2ccc(C(F)(F)F)cc2)cc1)C(=O)Cn1c(CCc2cccc(F)c2F)nc(=O)c2ccc(N3CCN(CCN4CCCCC4)CC3)nc21            %            7.76
2  CCN(C)CCCn1c(N(C)C)nc2cc(-n3cnc4cc(-c5ccc(Cl)cc5)sc4c3=O)ccc21            %            8.73

// next item, inhibition requested
Prompt: What value of measured inhibition is listed for `O=S(=O)(NCCN1CCCC1)c1ccc(-c2cccc(CNCc3ccc(F)cc3)c2)cc1F` ?
Response: 3.24
